# Tested on: 786-0 renal
# protocol.summary: NCI-60 one-dose screen, 48 h (100 = growth as untreated, 0 = no growth, -100 = all killed)
# experimental.setup: 10 µM unless noted
The panel holds about 83,000 compounds, 20% with a hit somewhere; the sample as a whole holds those more often.
Everything with growth lower than 60% is Not met; everything else, including exactly 60%, is Met.

As a guide, the following entries are already answered.
Is reported growth greater than or equal to 60% here: CC1=CCC(OC(=O)C(C)(C)CC(O)(C(C)O)C(O)C2(C)C=CC(Cc3ccc(C(C)C)cc3)(C(C)C)CC2)(C(C)C)CC1 (configuration not stated) Met

Is reported growth greater than or equal to 60% here: C/C(=N\O)c1ccc(NC(=O)CSc2nnc(-c3cc(-c4ccc(S(N)(=O)=O)cc4)nc4ccccc34)n2-c2ccccc2)cc1 Met

Is reported growth greater than or equal to 60% here: CC(=O)Oc1ccc(OC(C)=O)c2ccccc12 Met

Is reported growth greater than or equal to 60% here: COc1ccc(C2=CN3CC=CC3CC2=O)cc1 (configuration not stated) Met

Is reported growth greater than or equal to 60% here: Cc1ccc(-c2nc3nc(-c4ccccc4)nc(N4CCCN(S(C)(=O)=O)CC4)c3o2)cc1 Met

Is reported growth greater than or equal to 60% here: C=C(C)[C@@H]1CCC[C@]2(C(=O)N3CCN(C)CC3)CC[C@]3(C)[C@@H](CC[C@@H]4[C@@]5(C)CC/C(=N\NC(=O)c6ccncc6)C(C)(C)[C@@H]5CC[C@]43C)[C@@H]12 Met

Is reported growth greater than or equal to 60% here: COc1ccc2c(c1)/C(=N/c1n[nH]c(=S)s1)C(=O)N2 Met

Is reported growth greater than or equal to 60% here: CCN(CC)CCCN1C(=O)c2c(c(C)c3c(oc4ccc(OC)cc43)c2C)C1=O Not met

***
Is reported growth greater than or equal to 60% here: Fc1cc(Nc2ccc3c(OCCCN4CCOCC4)cccc3n2)ccc1Cl Not met

Is reported growth greater than or equal to 60% here: O=C(Cc1ccc(/C=C/C(=O)c2ncc[nH]2)cc1)Nc1cc(C(F)(F)F)cc(C(F)(F)F)c1 Not met

Is reported growth greater than or equal to 60% here: COC(=O)/C=C1/SC(=Nc2ccc([N+](=O)[O-])cc2)N(CCc2c[nH]c3ccc(O)cc23)C1=O Not met

Is reported growth greater than or equal to 60% here: Cc1ccc(-c2csc(NC(=O)c3ccccc3CN3C(=O)c4ccccc4C3=O)n2)cc1 Met

Is reported growth greater than or equal to 60% here: CC(=O)c1ccc(Nc2nccc(-c3ccc4ccccc4c3)n2)cc1 Met

Is reported growth greater than or equal to 60% here: S=c1nc2oc(-c3ccccc3)c(-c3ccccc3)c2c(/N=C\c2ccco2)[nH]1 Met

Is reported growth greater than or equal to 60% here: O=C(CCl)NNc1nccc(Nc2ccc(S(=O)(=O)Nc3ccncc3)cc2)n1 Not met

Is reported growth greater than or equal to 60% here: CCc1ccc(CCC(=O)Nc2ncc(Cc3ccccc3)s2)o1 Not met

###

# System: SNB-19 CNS
# protocol.summary: NCI-60 one-dose screen, 48 h (100 = growth as untreated, 0 = no growth, -100 = all killed)
# experimental.setup: 10 µM unless noted
About 83,000 compounds went through this panel and 20% of them were active in at least one assay; those are over-represented in the sample as a whole.
For each record, check the reported growth: if it is below 90% write met, else write not met.

As a guide, the following entries are already answered.
Strictly below 90% in growth? O=S(=O)(NCCNc1nccc(-c2c(-c3cccc(O)c3)nc3occn23)n1)c1ccc(Br)cc1 met

Strictly below 90% in growth? CS(=O)(=O)Nc1cc(-c2ccc3ncc(C#N)c(Nc4ccc(F)c(Cl)c4)c3c2)cnc1Cl met

Strictly below 90% in growth? C=CCC(CCCC)(C(=O)OCC)C(=O)OCC not met

Strictly below 90% in growth? CCSc1oc(C)nc1[P+](c1ccccc1)(c1ccccc1)c1ccccc1 met

Strictly below 90% in growth? COc1cc(-c2nc3cc(Cl)c(Cl)cc3[nH]2)ccc1OCC(=O)N=Nc1c(O)[nH]c2ccc(Cl)cc12 met

Strictly below 90% in growth? O=C(NNc1cnccn1)c1nc2cc(F)ccc2n2cccc12 met

***
Strictly below 90% in growth? Cc1nc2ccccc2c(/C=C/c2ccccc2)c1C(=O)/C=C/c1ccccc1 met

Strictly below 90% in growth? C#CCOc1cccc(-c2ncnc3cc(NC(=O)C=C)ccc23)c1 met

Strictly below 90% in growth? CC[N+]1(CC)CC[N+]2(CCCC(C)CC2)CC1 (configuration not stated) not met

Strictly below 90% in growth? O=C(N/N=C\c1cccc([N+](=O)[O-])c1)N/N=C/c1cccc([N+](=O)[O-])c1 not met

Strictly below 90% in growth? Cc1cccc(-c2nc(Nc3ccc4ncsc4c3)c3ccccc3n2)n1 not met

The origin of these recorded values is PubChem BioAssay (NCI).
